# Target: at least one kinase selected from Aurora-A, Aurora-B, EGF-R, ERBB2, PDGFR, IGF1-R, VEGF-R2, VEGF-R3, EPHB4, Tie2, and SRC
# Method notes: 33PanQinase Activity Assay (protein kinase assay)
# Stated conditions: on at least one kinase of the listed panel, or on at least two kinases from at least two different molecular mechanisms of tumor progression; 1 µM [γ-33P]-ATP, 30°C, 80 minutes
pIC50: −log10 of the molar value.
Entries annotated with measured pIC50

# Compound smiles, Measure, Result
measured = [
    ("COc1cc2ncnc(Nc3nc4ccc(NC(=O)Nc5cccc(C(F)(F)F)c5)cc4s3)c2cc1OC", "pIC50", "> 6.30"),
    ("COc1cc2ncnc(Nc3nc4cc(NC(=O)Nc5ccc(Cl)c(C(F)(F)F)c5)ccc4s3)c2cc1OC", "pIC50", "> 6.30"),
    ("COc1cc2ncnc(Nc3nc4ccc(NC(=O)Nc5ccccc5)cc4s3)c2cc1OC", "pIC50", "> 6.30"),
]

[in] Write down pIC50 measured for item `COc1cc2ncnc(Nc3nc4ccc(NC(=O)Nc5ccc(Cl)c(C(F)(F)F)c5)cc4s3)c2cc1OC`
[out] > 6.30

[in] Write down pIC50 measured for item `COc1cc2c(Nc3nc4ccc(NC(=O)Nc5ccc(Cl)c(C(F)(F)F)c5)cc4s3)ncnc2cc1OCCCN1CCN(C)CC1`
[out] > 6.30

[in] Write down pIC50 measured for item `COc1cc2ncnc(Nc3nc4ccc(NC(=O)Nc5cccc(F)c5)cc4s3)c2cc1OC`
[out] > 6.30

[in] Write down pIC50 measured for item `COc1cc2ncnc(Nc3nc4ccc(NC(=O)c5cccc(OC(F)(F)F)c5)cc4s3)c2cc1OC`
[out] > 6.30
